Tested on: ATP;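 note: ATP exposure 15 min at 22 °C before imaging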
protocolDescription: switch fluorescence ratio, 500 uM ATP over buffer (Cy3 cluster intensity, sum of 5 cycles each) (fold (ratio)); higher = stronger signal-on switching upon ATP binding; sequences stand for … in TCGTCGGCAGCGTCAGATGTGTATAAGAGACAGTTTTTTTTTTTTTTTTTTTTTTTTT…TC
experimentalSetup: aptamer strand: ATP DNA aptamer (quencher-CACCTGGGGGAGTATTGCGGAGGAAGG + anchor), 100 nM annealed; ATP concentration: 500 uM
For each entry below, report its switch fluorescence ratio value.
Reply: number alone, nothing else.

# input sequence: `TTAGAGGCTG` ; wanted: its switch fluorescence ratio
0.912

Similarly, `GGGCCATCGT` ?
0.993

Similarly, `ACATTCCTGT` ?
1.05

Similarly, `AGGTATGGGG` ?
0.998

Similarly, `GAGTCCTCTT` ?
1.01

Similarly, `CGTCCGGCAG` ?
1.67

Similarly, `GAAACTTGGT` ?
1

Similarly, `CGACCACGTA` ?
1.12

Similarly, `CGTTTTTATG` ?
1.03

Similarly, `AGGAGGGAAC` ?
0.992

Similarly, `CGGTACGTTT` ?
1.01

Similarly, `GCAGGAGTGG` ?
0.993

Similarly, `GTCGAAGGAA` ?
1

Similarly, `GTTTTTTGAG` ?
1

Similarly, `GGTATTTTGG` ?
0.953

Similarly, `AGGTTTTGGT` ?
1

Similarly, `GTGGGGACAC` ?
0.973

Similarly, `AATGGTTTTT` ?
0.991

Similarly, `TCATTGGGGA` ?
1.03

Similarly, `GTGGTTCTTT` ?
0.989

Similarly, `ATTTTCCAGG` ?
1.49

Similarly, `TTAGTGGGGA` ?
1.01

Similarly, `GGGAGGGAAA` ?
1.04

Similarly, `CGGACGGAAG` ?
1.01

Similarly, `CAAATGGGG` ?
0.959

Similarly, `GGATGCTGGG` ?
1

Similarly, `AGCGGGGGTG` ?
1.02

Similarly, `TTGGGGGCCA` ?
0.99

Similarly, `TAATTAGGGT` ?
1

Similarly, `TTTACTTA` ?
1.02

Similarly, `TTATTCGGGA` ?
1.02

Similarly, `GCGGGGTATC` ?
1.09

Similarly, `TTGCATTTTC` ?
1.09

Similarly, `ATCATACTTG` ?
1.03

Similarly, `AGGGTTCTTT` ?
1

Similarly, `TAACGGGAGG` ?
0.998

Similarly, `AATTTGACCC` ?
0.997

Similarly, `TATGCTTTAA` ?
1.01

Similarly, `CTGCTAATAT` ?
1.73

Similarly, `GCGGCTGGGA` ?
1.05

Similarly, `GATGATGGGT` ?
1

Similarly, `TTAAGAGGC` ?
1.01

Similarly, `GGGGTACTAC` ?
1

Similarly, `CACGATTTTT` ?
0.988

Similarly, `GATGGCGGGC` ?
1.01

Similarly, `GGTATTGCGT` ?
0.977

Similarly, `GAAAATTATG` ?
1.01

Similarly, `CTTGAAGGGG` ?
0.999

Similarly, `CCAGAGGAAC` ?
0.948

Similarly, `AGGCATGATG` ?
1.01

Similarly, `CGAATCCAGG` ?
2.46

Similarly, `TTTTTATTCC` ?
1.02

Similarly, `CGGGTATGAT` ?
1.03

Similarly, `GGGCGAGCCT` ?
1.03

Similarly, `TAGGATGAAG` ?
1.03

Similarly, `TGGGTGTGGA` ?
1.01

Similarly, `GCGGCTTGGG` ?
1.03

Similarly, `GCTAACGTGC` ?
0.993

Similarly, `ACCGGTTACA` ?
1.03

Similarly, `AAGATTGGGT` ?
1

Similarly, `TTTTACCGAG` ?
1.05

Similarly, `ACAGGTACAT` ?
1.12

Similarly, `TGCCTCTAGA` ?
1.1

Similarly, `ATAGAGAGGT` ?
1.01

Similarly, `ATGTATTTTC` ?
0.986

Similarly, `TGGATCAAAT` ?
0.971

Similarly, `CTTGGGTATA` ?
1.25

Similarly, `GTTAAAGGGG` ?
0.983

----------
For each entry below, report its switch fluorescence ratio value.
System: ATP;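 note: ATP exposure 15 min at 22 °C before imaging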
protocolDescription: switch fluorescence ratio, 500 uM ATP over buffer (Cy3 cluster intensity, sum of 5 cycles each) (fold (ratio)); higher = stronger signal-on switching upon ATP binding; sequences stand for … in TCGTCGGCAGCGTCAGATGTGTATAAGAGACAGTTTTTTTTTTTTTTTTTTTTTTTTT…TC
experimentalSetup: aptamer strand: ATP DNA aptamer (quencher-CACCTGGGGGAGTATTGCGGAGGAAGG + anchor), 100 nM annealed; ATP concentration: 500 uM

Identify the measured switch fluorescence ratio of `TGGTTAACAG` for ATP.
0.999

Similarly, `GTGGTGCTAG` ?
0.972

Similarly, `TTTTAAGAAT` ?
1

Similarly, `GACAGAGGGA` ?
1.02

Similarly, `TTAGGTTAGA` ?
0.993

Similarly, `GTGGCTTTGT` ?
1.02

Similarly, `TAATTCGGTT` ?
1

Similarly, `CGGGTTGTTA` ?
0.995

Similarly, `AGAAGCTAGT` ?
0.983

Similarly, `TTTATCGGTG` ?
0.995

Similarly, `TTTTGATATT` ?
1.01

Similarly, `TGGGGTTAAA` ?
0.997

Similarly, `TCTTTTATTT` ?
0.998

Similarly, `GGGGGGTAGG` ?
1.01

Similarly, `CATCCTTGGA` ?
0.996

Similarly, `ATCAGCGACT` ?
0.993

Similarly, `TCGATGCTGG` ?
0.982

Similarly, `TAGTATGAGG` ?
0.976

Similarly, `TTTCCCATTT` ?
1

Similarly, `TGGTAATTAT` ?
0.974

Similarly, `TTTGGGATTC` ?
0.979

Similarly, `TTCCTTTAGG` ?
0.98

Similarly, `CCGTTACCTG` ?
0.974

Similarly, `TATCGAGTTT` ?
1

Similarly, `GCTAAAAAGC` ?
0.998

Similarly, `GCAAGGTAAA` ?
1.01

Similarly, `TGTTGGGTTG` ?
0.999

Similarly, `TCCAGAGATG` ?
0.997

----------
System: ATP;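 note: ATP exposure 15 min at 22 °C before imaging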
protocolDescription: switch fluorescence ratio, 500 uM ATP over buffer (Cy3 cluster intensity, sum of 5 cycles each) (fold (ratio)); higher = stronger signal-on switching upon ATP binding; sequences stand for … in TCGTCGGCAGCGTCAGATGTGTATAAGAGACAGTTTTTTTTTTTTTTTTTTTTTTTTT…TC
experimentalSetup: aptamer strand: ATP DNA aptamer (quencher-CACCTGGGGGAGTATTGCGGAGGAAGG + anchor), 100 nM annealed; ATP concentration: 500 uM
For each entry below, report its switch fluorescence ratio value.
Reply: number alone, nothing else.

Identify the measured switch fluorescence ratio of `TTAGATATAT` for ATP.
0.996

Similarly, `GATGCCTGGA` ?
1.02

Similarly, `GAGATAAAAG` ?
1.01

Similarly, `TGATTGATAT` ?
1.01

Similarly, `TTTTTTGGT` ?
0.986

Similarly, `GGAGACTCAA` ?
0.988

Similarly, `AGAATGTATG` ?
0.994

Similarly, `GGTTCTTTTC` ?
0.996

Similarly, `CTGATGTTGT` ?
1

Similarly, `ACATGGGGTT` ?
0.998

Similarly, `GAGAGGAGGT` ?
1.02

Similarly, `CAATGTTTGC` ?
1

Similarly, `TTGATGGGTT` ?
1.02

Similarly, `AAGTCCGGGA` ?
0.998

----------
Tested on: ATP;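 note: ATP exposure 15 min at 22 °C before imaging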
protocolDescription: switch fluorescence ratio, 500 uM ATP over buffer (Cy3 cluster intensity, sum of 5 cycles each) (fold (ratio)); higher = stronger signal-on switching upon ATP binding; sequences stand for … in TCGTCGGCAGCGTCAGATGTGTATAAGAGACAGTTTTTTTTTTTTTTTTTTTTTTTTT…TC
experimentalSetup: aptamer strand: ATP DNA aptamer (quencher-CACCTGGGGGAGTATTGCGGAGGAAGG + anchor), 100 nM annealed; ATP concentration: 500 uM
Is switch fluorescence ratio at least 1? Then 1. If not, 0.

Is it the case that `TTCGTAGTTT` has switch fluorescence ratio reaching or exceeding 1?
0

Similarly, `TTTTCCGGGG` ?
1

Similarly, `TGTGGGATCG` ?
0

Similarly, `TAAAGTGAGC` ?
1

Similarly, `ATTTCTCGGT` ?
1

----------
Test system: ATP;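 note: ATP exposure 15 min at 22 °C before imaging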
protocolDescription: switch fluorescence ratio, 500 uM ATP over buffer (Cy3 cluster intensity, sum of 5 cycles each) (fold (ratio)); higher = stronger signal-on switching upon ATP binding; sequences stand for … in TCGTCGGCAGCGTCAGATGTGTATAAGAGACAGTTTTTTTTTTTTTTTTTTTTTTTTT…TC
experimentalSetup: aptamer strand: ATP DNA aptamer (quencher-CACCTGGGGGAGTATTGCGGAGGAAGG + anchor), 100 nM annealed; ATP concentration: 500 uM
For each entry below, report its switch fluorescence ratio value.
Reply: number alone, nothing else.

Identify the measured switch fluorescence ratio of `TAAAAGGGGG` for ATP.
0.999

Similarly, `AGCTGATGG` ?
1.03

Similarly, `GCGCATGAAG` ?
0.983

Similarly, `AGGATAAAGG` ?
1.03

Similarly, `CGTCATTTTC` ?
1.05
